STUDY_TARGET: T1, Recombinant human MASP1 enzyme (fragment corresponding to amino acids 297-699, C-terminal His Tag) (human, UniProt P48740 297-699)
T1 sequence: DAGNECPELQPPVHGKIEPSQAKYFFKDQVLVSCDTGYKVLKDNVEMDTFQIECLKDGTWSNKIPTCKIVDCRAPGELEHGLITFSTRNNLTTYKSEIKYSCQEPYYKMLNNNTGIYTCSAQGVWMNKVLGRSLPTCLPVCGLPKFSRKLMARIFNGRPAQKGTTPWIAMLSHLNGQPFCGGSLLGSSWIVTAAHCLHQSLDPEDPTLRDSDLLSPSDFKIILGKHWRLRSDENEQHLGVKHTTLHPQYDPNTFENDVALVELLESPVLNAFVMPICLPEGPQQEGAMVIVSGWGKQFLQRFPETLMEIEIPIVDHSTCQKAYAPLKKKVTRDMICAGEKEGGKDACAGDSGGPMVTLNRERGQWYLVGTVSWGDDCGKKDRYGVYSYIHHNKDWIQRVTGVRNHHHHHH
METHOD_NOTES: cell-based or functional assay
Numbered stars: 1 amine (or outer) side, 2 acyl side, 3 side chain; on linkers, the order of the positions; unused ones are H or OH. Bridge positions count the residues as written; N and C are the ends. Square brackets hold non-standard residues; d marks the D form. Ends that are not written are not given here. X12 = (S)‑(trifluoromethyl)‑L‑cysteine, O=C([C@H](CSC(F)(F)F)N[*:1])[*:2]; Oic = O=C(O)[C@@H]1C[C@@H]2CCCC[C@@H]2N1; Pen = CC(C)(S)[C@H](N)C(=O)O; Sar = CNCC(=O)O
TEST_READOUT: human MASP1 IC50 (nM)
One number for each entry, in nM.

Consider the worked cases shown below.
# BINDER, TEST_VALUE
data = [
    ("[dA]ICSRS[X12]PPI[Pen]IP-NH2 (disulfide 3-11; N-terminus assumed; SMILES CC[C@H](C)[C@H](NC(=O)[C@@H](C)N)C(=O)N[C@H]1CSSC(C)(C)[C@@H](C(=O)N[C@H](C(=O)N2CCC[C@H]2C(N)=O)[C@@H](C)CC)NC(=O)[C@H]([C@@H](C)CC)NC(=O)[C@@H]2CCCN2C(=O)[C@@H]2CCCN2C(=O)[C@H](CSC(F)(F)F)NC(=O)[C@H](CO)NC(=O)[C@H](CCCNC(=N)N)NC(=O)[C@H](CO)NC1=O) [aIC+SRS-((S)-(trifluoromethyl)-L-cysteine)-PPI-(Pen)+IP-NH2]", 7.3),
    ("[Sar]ICSRSLP[Oic]I[Pen]IPE-OH (disulfide 3-11; N-terminus assumed; SMILES CC[C@H](C)[C@H](NC(=O)CNC)C(=O)N[C@H]1CSSC(C)(C)[C@@H](C(=O)N[C@H](C(=O)N2CCC[C@H]2C(=O)N[C@@H](CCC(=O)O)C(=O)O)[C@@H](C)CC)NC(=O)[C@H]([C@@H](C)CC)NC(=O)[C@@H]2C[C@@H]3CCCC[C@@H]3N2C(=O)[C@@H]2CCCN2C(=O)[C@H](CC(C)C)NC(=O)[C@H](CO)NC(=O)[C@H](CCCNC(=N)N)NC(=O)[C@H](CO)NC1=O) [((N-Me)G)-IC+SRSLP-(Oic)-I-(Pen)+IPE-OH]", 5.1),
]

Let us move to another entry and its human MASP1 IC50.
Given the binder AICSRSL[(4aR,6aR,9S,11aS)‑11‑Oxo‑2,3,4,4a,6a,7,8,9,11,11a‑decahydro‑1H‑pyrido(3,2-e)pyrrolo(1,2-a)azepine‑9‑carboxylic acid]ICIPD-NH2 (disulfide 3-10) , what is its reported human MASP1 IC50?
8.2
